target: SARS-CoV-2 (WIV02 isolate) prefusion stabilized spike trimer protein (UniProt P0DTC2 14-1213); experiment: ELISA
endpoint: IC50 (nM)
Report the value in nM with no unit label.

[[record]]
binder = "1-L10-A (antibody, V domains shown) VH: EVKLEESGGGLVQPGGSMKLSCVASGFTFNNYWMNWVRQSPEKGLEWVAQMRLKSDNYATHYAESVKGRFTISRDDSKSSVYLQMNNLRAEDTGIYYCIEGYWTYWGQGTLVTVSA VL: QIVLTQSPAIMSASLGERVTMTCTASSSVSSSYLHWYQQKPGSSPKLWIYSTSNLASGVPARFSGNGSGTSYSLTISSMEAEDAATYYCLQYHRSPPYTFGGGTKLEIK"
measurement = 8.65

[[record]]
binder = "2-H7-A (antibody, V domains shown) VH: QAYLQQSGAELVRPGASVKMSCKASGYTFTGYTMHWVKQTPRQGLEWIGAIYPENGDTSYNQKFKGKATLTVDKSSSTAYMQLSSLTSEDSAVYFCARDGYDVLYGMDYWGQGTSVTVSS VL: DIVLTQSPASLAVSLGQRATISCRASKSVSTSGYSYMHWYQQKPGQPPKLLIYLASNLESGVPARFSGSGSGTDFTLNIHPVEEEDAATYYCQHSRELPWTFGGGTKLDIK"
measurement = 7.21


Attention now turns to another entry.
May I ask what IC50 has been recorded for 8-H5-A (antibody, V domains shown) VH: QVTLKESGPGILQSSQTLSLTCSLSGFSLSTSGMGVSWVRQPSGKGLEWLAHIYWDDDKRYTPSLKSRLTISTDSSRKQVFLKITSVDTADTATYYCARRDLHDYDGWFAYWGQGTLVTVSA VL: DIVMTQSQKFMSTAVGDRVSVTCKASQNVGTNVAWYQQKPGQSPKALIYSASFRYSGVPDRFSGSGSGTDFTLTISNVQSEDLAEYFCQQYNSYPLTFGSGTKLEIK ?
12.8
